Test system: Plasmodium falciparum
test: Antiplasmodial activity against erythrocytic stage of Plasmodium falciparum NF54 assessed as reduction in [3H]hypoxanthine incorporation after 48 hrs by liquid scintillation counting method
Type: functional, organism-based
pIC50: −log10 of the molar value.
Outcome label depends on pIC50 relative to 5: at/above gives 1 (yes), below gives 0 (no).

molecule | qualitative.label
COc1cc(NC(C)CCCNC(=O)NNC(=O)/C=C/c2cccc(C(F)(F)F)c2)c2ncccc2c1 (stereo unspecified) | 0 (no)
COc1cc(NC(C)CCCNC(=O)NC(C(=O)NC(c2ccccc2)c2ccccc2)c2ccc(Cl)cc2)c2ncccc2c1 (stereo unspecified) | 1 (yes)
COc1cc(NC(C)CCCNC(=O)NNC(=O)NOCc2ccccc2)c2ncccc2c1 (stereo unspecified) | 0 (no)
COc1cc(NC(C)CCCNC(=O)NC(C(=O)NC(c2ccccc2)c2ccc(Cl)cc2)c2ccc(Cl)cc2)c2ncccc2c1 (stereo unspecified) | 1 (yes)
COc1cc(NC(C)CCCNC(=O)Nc2ccc(Cl)c(C(F)(F)F)c2)c2ncccc2c1 (stereo unspecified) | 0 (no)
COc1cc(NC(C)CCCNC(=O)NNC(=O)NCCNC(c2ccccc2)(c2ccccc2)c2ccccc2)c2ncccc2c1 (stereo unspecified) | 1 (yes)
COc1cc(NC(C)CCCNC(=O)NC2CCCC2)c2ncccc2c1 (stereo unspecified) | 0 (no)
COc1cc(NC(C)CCCNC(=O)NC(C(=O)N(C)C(c2ccccc2)c2ccccc2)c2ccccc2)c2ncccc2c1 (stereo unspecified) | 1 (yes)
COc1cc(NC(C)CCCN)c2ncccc2c1 (stereo unspecified) [PRIMAQUINE PHOSPHATE] | 1 (yes)
COc1cc(NC(C)CCCNC(=O)/C(C)=C/c2ccccc2)c2ncccc2c1 (stereo unspecified) | 0 (no)
COc1cc(NC(C)CCCNC(=O)NNC(=O)N(CCO)CCO)c2ncccc2c1 (stereo unspecified) | 0 (no)
COc1cc(NC(C)CCCNC(=O)NNC(=O)/C=C/c2cc(C(F)(F)F)cc(C(F)(F)F)c2)c2ncccc2c1 (stereo unspecified) | 0 (no)
COc1cc(NC(C)CCCNC(=O)NNC(=O)/C=C/c2ccc3c(c2)OCO3)c2ncccc2c1 (stereo unspecified) | 0 (no)
COc1cc(NC(C)CCCNC(=O)NCc2ccncc2)c2ncccc2c1 (stereo unspecified) | 0 (no)
COc1cc(NC(C)CCCNC(=O)/C=C/c2ccccc2)c2ncccc2c1 (stereo unspecified) | 0 (no)
COc1cc(NC(C)CCCNC(=O)NC(CC(C)C)C(=O)NC(c2ccccc2)c2ccccc2)c2ncccc2c1 (stereo unspecified) | 1 (yes)
COc1cc(NC(C)CCCNC(=O)NCCCC(C)Nc2cc(OC)cc3cccnc23)c2ncccc2c1 (stereo unspecified) | 1 (yes)
COc1cc(NC(C)CCCNC(=O)NNC(=O)NCCCCCO)c2ncccc2c1 (stereo unspecified) | 0 (no)
COc1cc(NC(C)CCCNC(=O)NCCNC(c2ccccc2)(c2ccccc2)c2ccccc2)c2ncccc2c1 (stereo unspecified) | 1 (yes)
COc1cc(NC(C)CCCNC(=O)NNC(=O)/C=C/c2ccccc2F)c2ncccc2c1 (stereo unspecified) | 0 (no)
COc1cc(NC(C)CCCNC(=O)NC(C(=O)Nc2ccc(Br)cc2)c2ccc(Cl)cc2)c2ncccc2c1 (stereo unspecified) | 1 (yes)

###

System: L6
test: Cytotoxicity against rat L6 cells assessed as reduction in cell viability after 70 hrs by Alamar blue assay
Type: cell-based
condition.set: L6, 70 h
pIC50: −log10 of the molar value.

compound | inequality.symbol | pIC50
COc1cc(NC(C)CCCNC(=O)NC(C(=O)NC(c2ccccc2)c2ccccc2)c2ccc(Cl)cc2)c2ncccc2c1 (centres undefined) | < | 3.80
COc1cc(NC(C)CCCNC(=O)/C=C/c2cc(C(F)(F)F)cc(C(F)(F)F)c2)c2ncccc2c1 (centres undefined) | = | 3.80
COc1cc(NC(C)CCCNC(=O)NNC(=O)Nc2ccc(Cl)cc2)c2ncccc2c1 (centres undefined) | = | 4.04
COc1cc(NC(C)CCCNC(=O)/C=C/c2ccccc2)c2ncccc2c1 (centres undefined) | = | 4.73
COc1ccc(/C(=N/NC(=O)NCCCC(C)Nc2cc(OC)cc3cccnc23)c2ccccc2)cc1 (centres undefined) | < | 3.71
COc1cc(NC(C)CCCNC(=O)/C=C/c2ccc3c(c2)OCO3)c2ncccc2c1 (centres undefined) | = | 4.54
COc1cc(NC(C)CCCNC(=O)NNC(=O)NC(c2ccccc2)c2ccc(Cl)cc2)c2ncccc2c1 (centres undefined) | = | 5.08
COc1cc(NC(C)CCCNC(=O)NNC(=O)/C=C/c2cc(C(F)(F)F)cc(C(F)(F)F)c2)c2ncccc2c1 (centres undefined) | < | 3.77
COc1cc(NC(C)CCCNC(=O)NNC(=O)Nc2ccc(C(F)(F)F)cc2)c2ncccc2c1 (centres undefined) | = | 4.83
COc1ccc(/C=C/C(=O)NCCCC(C)Nc2cc(OC)cc3cccnc23)cc1 (centres undefined) | < | 3.62
COc1cc(NC(C)CCCNC(=O)NNC(=O)/C=C/c2ccc(OC)c(OC)c2)c2ncccc2c1 (centres undefined) | = | 4.43
COc1cc(NC(C)CCCNC(=O)NNC(=O)/C=C/c2cc(OC)c(OC)c(OC)c2)c2ncccc2c1 (centres undefined) | = | 3.86
COc1cc(NC(C)CCCNC(=O)NC(c2ccccc2)c2ccc(Cl)cc2)c2ncccc2c1 (centres undefined) | = | 3.85
COc1cc(NC(C)CCCNC(=O)NCCNC(c2ccccc2)(c2ccccc2)c2ccccc2)c2ncccc2c1 (centres undefined) | < | 3.77
COc1cc(NC(C)CCCNC(=O)NNC(=O)N(CCO)CCO)c2ncccc2c1 (centres undefined) | = | 3.75
COc1cc(NC(C)CCCNC(=O)NC(C(=O)Nc2ccc(Br)cc2)c2ccc(Cl)cc2)c2ncccc2c1 (centres undefined) | = | 4.27
COc1cc(NC(C)CCCNC(=O)NC(CC(C)C)C(=O)NC(c2ccccc2)c2ccccc2)c2ncccc2c1 (centres undefined) | < | 3.77
COc1cc(NC(C)CCCNC(=O)/C=C/c2ccc(Cl)cc2)c2ncccc2c1 (centres undefined) | = | 4.77
COc1ccc(/C=C/C(=O)NNC(=O)NCCCC(C)Nc2cc(OC)cc3cccnc23)cc1 (centres undefined) | = | 5.44
COc1cc(NC(C)CCCNC(=O)NNC(=O)Nc2cccc(C(F)(F)F)c2)c2ncccc2c1 (centres undefined) | = | 4.49
COc1cc(NC(C)CCCNC(=O)/C(C)=C/c2ccccc2)c2ncccc2c1 (centres undefined) | < | 3.60
COc1cc(NC(C)CCCNC(=O)NC(C(=O)NC(c2ccccc2)c2ccc(Cl)cc2)c2ccccc2)c2ncccc2c1 (centres undefined) | < | 3.80
COc1cc(NC(C)CCCNC(=O)NNC(=O)/C=C/c2ccccc2)c2ncccc2c1 (centres undefined) | = | 4.86
COc1cc(NC(C)CCCNC(=O)NC(C(=O)NC(c2ccccc2)c2ccc(Cl)cc2)c2ccc(Cl)cc2)c2ncccc2c1 (centres undefined) | < | 3.82
COc1cc(NC(C)CCCNC(=O)/C=C/c2cccc(C(F)(F)F)c2)c2ncccc2c1 (centres undefined) | = | 4.79
COc1cc(NC(C)CCCNC(=O)NNC(=O)NCCCC(C)Nc2cc(OC)cc3cccnc23)c2ncccc2c1 (centres undefined) | = | 4.12
COc1cc(NC(C)CCCNC(=O)NNC(=O)Nc2cccc(Cl)c2)c2ncccc2c1 (centres undefined) | = | 4.23
COc1cc(NC(C)CCCNC(=O)NCCCC(C)Nc2cc(OC)cc3cccnc23)c2ncccc2c1 (centres undefined) | < | 3.74
COc1cc(NC(C)CCCNC(=O)/C=C/c2cc(OC)c(OC)c(OC)c2)c2ncccc2c1 (centres undefined) | < | 3.68
COc1cc(NC(C)CCCNC(=O)NNC(=O)/C=C/c2ccccc2F)c2ncccc2c1 (centres undefined) | = | 4.60
COc1cc(NC(C)CCCNC(=O)/C=C/c2ccc(OC)c(OC)c2)c2ncccc2c1 (centres undefined) | < | 3.66
COc1cc(NC(C)CCCNC(=O)NNC(=O)/C=C/c2cccc(C(F)(F)F)c2)c2ncccc2c1 (centres undefined) | = | 4.97
COc1ccc(C(=NNC(=O)NNC(=O)NCCCC(C)Nc2cc(OC)cc3cccnc23)c2ccc(OC)cc2)cc1 (centres undefined) | = | 3.87
COc1cc(NC(C)CCCNC(=O)/C=C/c2ccccc2F)c2ncccc2c1 (centres undefined) | = | 5.46
